Tested on: Human bone marrow CD34+ cells
TEST: Megakaryocyte colony stimulating activity (megakaryocyte colony forming method)
Type: cell-based
TEST SETTINGS: 11 days, MegaCult-C, colonies of at least 8 stained megakaryocyte cells, average of at least 2 wells
Recorded Colony count at 1 μg/mL values for a group of compounds are listed next.

Example compounds with recorded Colony count at 1 μg/mL:
compound="C/C(=N\\NC(=O)c1ccc(C(=O)O)s1)c1nn(C)c(-c2ccc(C(C)(C)C)cc2)c1O [Reference Synthetic Ex. 6, reference compound]" reported_measurement=1
compound="COCCNC(=O)c1ccc(C(=O)NN=C(C)c2nn(C)c(-c3ccc(C(F)(F)F)cc3)c2O)s1 [Synthetic Example 5]" reported_measurement=335
compound="CC(=NNC(=O)c1ccc(C(=O)NCc2ccncc2)s1)c1nn(C)c(-c2ccc(C(F)(F)F)cc2)c1O [Synthetic Example 4]" reported_measurement=111

q: Which Colony count at 1 μg/mL is reported for this compound? CC(=NNC(=O)c1ccc(C(=O)NCc2ccccn2)s1)c1nn(C)c(-c2ccc(C(F)(F)F)cc2)c1O.[K] [Synthetic Example 2]
a: 121

q: Which Colony count at 1 μg/mL is reported for this compound? CC(=NNC(=O)c1ccc(C(=O)NCc2ccncc2)s1)c1nn(C)c(-c2ccc(Cl)c(Cl)c2)c1O [Synthetic Example 6]
a: 173

q: Which Colony count at 1 μg/mL is reported for this compound? CC(=NNC(=O)c1ccc(C(=O)NC(C)C)s1)c1nn(C)c(-c2ccc(C(F)(F)F)cc2)c1O [Synthetic Example 3]
a: 141
